- Assayed target: AChE, from human erythrocytes EC 3.1.1.7 (Homo sapiens)
- Sequence (P22303 32-617 isoform P22303-2 limits assumed): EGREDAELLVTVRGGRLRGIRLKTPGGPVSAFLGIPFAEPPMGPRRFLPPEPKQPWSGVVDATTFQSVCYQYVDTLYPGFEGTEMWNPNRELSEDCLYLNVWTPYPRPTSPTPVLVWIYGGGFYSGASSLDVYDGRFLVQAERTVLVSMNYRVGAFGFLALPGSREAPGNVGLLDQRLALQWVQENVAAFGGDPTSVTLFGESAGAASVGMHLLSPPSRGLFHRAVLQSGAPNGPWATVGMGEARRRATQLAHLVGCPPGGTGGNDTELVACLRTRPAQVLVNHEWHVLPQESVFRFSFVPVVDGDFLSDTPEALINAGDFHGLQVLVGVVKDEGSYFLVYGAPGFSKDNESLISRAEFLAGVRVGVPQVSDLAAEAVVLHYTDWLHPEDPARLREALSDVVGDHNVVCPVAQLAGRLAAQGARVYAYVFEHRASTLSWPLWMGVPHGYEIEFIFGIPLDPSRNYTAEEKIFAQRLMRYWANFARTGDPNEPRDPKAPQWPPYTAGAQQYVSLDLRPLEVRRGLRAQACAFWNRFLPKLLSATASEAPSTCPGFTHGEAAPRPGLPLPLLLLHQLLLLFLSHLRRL
Property: Ki (nM)

[[record]]
entry_smiles = "CCN(CCCCCCNC1=CC(=O)C(NCCCCCCN(CC)Cc2ccccc2OC)=CC1=O)Cc1ccccc1OC"
measurement_unit = "nM"
measurement = 2.6


* * *

- Assayed target: recombining human AChE (HuAChE, EC 3.1.1.7) (Homo sapiens, UniProt P22303)
- Sequence (P22303 32-614): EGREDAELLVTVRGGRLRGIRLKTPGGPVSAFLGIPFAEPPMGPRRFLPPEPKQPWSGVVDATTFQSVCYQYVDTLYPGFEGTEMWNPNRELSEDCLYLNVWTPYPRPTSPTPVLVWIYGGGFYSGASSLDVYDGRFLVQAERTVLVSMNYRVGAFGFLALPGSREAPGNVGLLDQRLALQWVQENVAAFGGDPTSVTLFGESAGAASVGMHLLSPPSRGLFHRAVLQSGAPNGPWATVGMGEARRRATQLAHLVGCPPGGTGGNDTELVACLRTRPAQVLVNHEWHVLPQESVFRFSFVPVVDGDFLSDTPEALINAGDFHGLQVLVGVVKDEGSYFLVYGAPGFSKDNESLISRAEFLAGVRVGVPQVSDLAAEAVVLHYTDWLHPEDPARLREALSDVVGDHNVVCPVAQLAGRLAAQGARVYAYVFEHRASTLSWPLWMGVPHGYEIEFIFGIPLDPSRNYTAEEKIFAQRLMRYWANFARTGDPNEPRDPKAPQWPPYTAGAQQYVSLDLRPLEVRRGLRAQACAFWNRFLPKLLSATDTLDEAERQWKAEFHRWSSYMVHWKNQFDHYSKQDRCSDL
- Experimental conditions: mean of two independent measurements in triplicate
pIC50: −log10 of the molar value.
Property: pIC50

[[record]]
entry_smiles = "CCN(CCCCCCNC1=CC(=O)C(NCCCCCCN(CC)Cc2ccccc2)=CC1=O)Cc1ccccc1"
measurement = 7.13

[[record]]
entry_smiles = "CCN(CCCCCCNC1=CC(=O)C(NCCCCCCN(CC)Cc2ccccc2OC)=CC1=O)Cc1ccccc1OC"
measurement = 8.81

[[record]]
entry_smiles = "COc1ccccc1CN(C)CCCCCCNC1=CC(=O)C(NCCCCCCN(C)Cc2ccccc2OC)=CC1=O"
measurement = 7.11

[[record]]
entry_smiles = "CCN(CCNC1=CC(=O)C(NCCN(CC)Cc2ccccc2OC)=CC1=O)Cc1ccccc1OC"
measurement = 7.21


* * *

Recorded IC50 by entry
- Assayed target: recombining human AChE (HuAChE, EC 3.1.1.7) (Homo sapiens)
- Experimental conditions: mean of two independent measurements in triplicate
Property: IC50 (µM)

[[record]]
compound = "CCN(CCCNC1=CC(=O)C(NCCCN(CC)Cc2ccccc2OC)=CC1=O)Cc1ccccc1OC [XII]"
property = "IC50"
measurement = 0.00225

[[record]]
compound = "CCN(CCCCCCNC1=CC(=O)C(NCCCCCCN(CC)Cc2ccccc2Cl)=CC1=O)Cc1ccccc1Cl [XVIII]"
property = "IC50"
measurement = 0.593

[[record]]
compound = "CCN(CCCCCCNC1=C(C)C(=O)C(NCCCCCCN(CC)Cc2ccccc2OC)=C(C)C1=O)Cc1ccccc1OC [LV]"
property = "IC50"
measurement = 0.0095

[[record]]
compound = "CCN(CCCCCCNC1=CC(=O)C(NCCCCCCN(CC)Cc2cccc(OC)c2)=CC1=O)Cc1cccc(OC)c1 [XXXIII]"
property = "IC50"
measurement = 0.0138

[[record]]
compound = "CCN(CCCCCCCNC1=CC(=O)C(NCCCCCCCN(CC)Cc2ccccc2OC)=CC1=O)Cc1ccccc1OC [IL]"
property = "IC50"
measurement = 0.00779

[[record]]
compound = "CCN(CCCCCCNC1=CC(=O)C(NCCCCCCN(CC)Cc2ccccc2[N+](=O)[O-])=CC1=O)Cc1ccccc1[N+](=O)[O-] [XXIX]"
property = "IC50"
measurement = 2.31

[[record]]
compound = "CCN(CCCCCCNC1=CC(=O)C(NCCCCCCN(CC)Cc2ccco2)=CC1=O)Cc1ccco1 [XLI]"
property = "IC50"
measurement = 0.144

[[record]]
compound = "CCN(CCCCCCNC1=CC(=O)C(NCCCCCCN(CC)Cc2ccc(OC)cc2)=CC1=O)Cc1ccc(OC)cc1 [XXXVII]"
property = "IC50"
measurement = 0.0511

[[record]]
compound = "COc1ccccc1CNCCCCCCNC1=CC(=O)C(NCCCCCCNCc2ccccc2OC)=CC1=O [LI]"
property = "IC50"
measurement = 0.123


* * *

- Assayed target: BuChE (from human serum, EC 3.1.1.8) (Homo sapiens)
- Sequence (P06276 29-602): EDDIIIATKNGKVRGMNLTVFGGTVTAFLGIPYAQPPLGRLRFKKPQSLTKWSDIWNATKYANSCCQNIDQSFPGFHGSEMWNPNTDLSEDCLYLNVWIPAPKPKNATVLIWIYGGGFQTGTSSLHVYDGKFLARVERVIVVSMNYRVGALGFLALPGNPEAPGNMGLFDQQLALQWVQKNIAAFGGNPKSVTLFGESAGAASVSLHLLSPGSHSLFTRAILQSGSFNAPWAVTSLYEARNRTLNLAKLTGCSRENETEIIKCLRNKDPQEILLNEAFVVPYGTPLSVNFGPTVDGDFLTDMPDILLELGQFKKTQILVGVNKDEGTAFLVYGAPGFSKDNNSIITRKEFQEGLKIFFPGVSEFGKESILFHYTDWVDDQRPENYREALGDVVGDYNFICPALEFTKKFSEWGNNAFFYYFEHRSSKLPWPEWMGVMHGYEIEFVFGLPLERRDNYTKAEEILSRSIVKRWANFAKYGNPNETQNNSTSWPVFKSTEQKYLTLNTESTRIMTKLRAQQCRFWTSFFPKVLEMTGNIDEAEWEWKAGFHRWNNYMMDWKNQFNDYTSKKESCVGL
- Test details: biochemical
- Experimental conditions: BuChE from human serum; Example 50 table; mean of two independent measurements in triplicate; read-out: IC50 (BuChE)
pIC50: −log10 of the molar value.
Binary call on pIC50: Yes from 6 upward, No beneath that.

[[record]]
entry_smiles = "CCN(CCCCCCNC1=C(C)C(=O)C(NCCCCCCN(CC)Cc2ccccc2OC)=C(C)C1=O)Cc1ccccc1OC"
group_label = "Yes"

[[record]]
entry_smiles = "CCN(CCCCCCNC1=CC(=O)C(NCCCCCCN(CC)Cc2ccccc2Cl)=CC1=O)Cc1ccccc1Cl"
group_label = "No"

[[record]]
entry_smiles = "COc1ccccc1CNCCCCCCNC1=CC(=O)C(NCCCCCCNCc2ccccc2OC)=CC1=O"
group_label = "No"

[[record]]
entry_smiles = "CCN(CCCCCCNC1=CC(=O)C(NCCCCCCN(CC)Cc2ccco2)=CC1=O)Cc1ccco1"
group_label = "No"

[[record]]
entry_smiles = "CCN(CCCCCCNC1=CC(=O)C(NCCCCCCN(CC)Cc2cccc(OC)c2)=CC1=O)Cc1cccc(OC)c1"
group_label = "No"

[[record]]
entry_smiles = "CCN(CCNC1=CC(=O)C(NCCN(CC)Cc2ccccc2OC)=CC1=O)Cc1ccccc1OC"
group_label = "No"

[[record]]
entry_smiles = "CCN(CCCCCCNC1=CC(=O)C(NCCCCCCN(CC)Cc2ccccc2)=CC1=O)Cc1ccccc1"
group_label = "Yes"

[[record]]
entry_smiles = "CCN(CCCCCCNC1=CC(=O)C(NCCCCCCN(CC)Cc2ccc(OC)cc2)=CC1=O)Cc1ccc(OC)cc1"
group_label = "No"

[[record]]
entry_smiles = "COc1ccccc1CN(C)CCCCCCNC1=CC(=O)C(NCCCCCCN(C)Cc2ccccc2OC)=CC1=O"
group_label = "No"

